The measured values listed here are drawn from patent US6071913A.

# experimentalSystem: Angiotensin II Type I Receptor (Homo sapiens, UniProt P30556)
# Construct: purchased NEN Research Products NED-014
# Sequence (P30556 1-359): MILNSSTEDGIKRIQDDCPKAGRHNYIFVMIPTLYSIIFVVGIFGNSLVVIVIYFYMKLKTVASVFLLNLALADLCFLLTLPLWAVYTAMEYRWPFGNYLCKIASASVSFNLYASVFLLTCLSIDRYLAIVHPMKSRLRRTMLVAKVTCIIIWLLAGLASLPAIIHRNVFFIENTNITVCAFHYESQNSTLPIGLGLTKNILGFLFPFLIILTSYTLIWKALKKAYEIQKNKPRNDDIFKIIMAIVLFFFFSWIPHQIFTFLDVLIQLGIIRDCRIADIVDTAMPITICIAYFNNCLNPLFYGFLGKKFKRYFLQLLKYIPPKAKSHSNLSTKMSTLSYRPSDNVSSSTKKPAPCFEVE
# assaySummary: Binding affinity to Angiotensin II receptor ([125I]-Sar1,Ile8-Angiotensin II radioligand, Angiotensin II Type I Receptor Kit NED-014)
# conditionParameters: concentration of compound corresponding to 50% inhibition; EBDA software, inhibition at 7 different concentrations; 3 hours incubation; read-out: IC50
The following compounds are listed with their measured IC50 values.

{"columns": ["smiles", "valueKind", "recordedValue"],
 "data": [
  ["CCCCc1nnc(CCc2ccccc2)c(=O)n1Cc1ccc(-c2ccccc2-c2nnn[nH]2)cc1", "IC50", "55.1 nM"],
  ["CCCCc1nc(=O)c(CCc2ccccc2)nn1Cc1ccc(-c2ccccc2-c2nnn[nH]2)cc1", "IC50", "67.5 nM"]
]}

// recorded IC50 for CCCCc1nc(=O)c(-c2ccccc2)nn1Cc1ccc(-c2ccccc2-c2nnn[nH]2)cc1 : 336 nM
